Measured growth AUC values are reported for all entries that follow.
- Test system: Akkermansia muciniphila
- method-notes: growth AUC relative to DMSO control (median of replicates) (fraction); higher = more growth (less inhibition), active = hit call of the paper
- test-conditions: 20 µM; 24 h
Output: the number by itself.

Problem: Form field: reported growth AUC of Cc1ccc2c(c1)[C@H](Nc1nc(N)nc(C(C)F)n1)[C@@H](C)C2 (stereo partly specified)
Result: 0.985

###

- Tested on: Clostridium difficile
- method-notes: growth AUC relative to DMSO control (median of replicates) (fraction); higher = more growth (less inhibition), active = hit call of the paper;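 active = AUC reduced over 20% with Padj below 0.05 in at least 2 of 3 replicates; inactive = otherwise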
- test-conditions: 20 µM; 24 h
Field 'call' accepts active, inactive

Past entries and their recorded results:
Nc1ccc(S(=O)(=O)Nc2cnc3ccccc3n2)cc1	inactive
CCCCCCCC(=O)Oc1c(Br)cc(C#N)cc1Br	inactive
CCc1nc2ncnn2c(N)c1CCCCCC(=O)O.Cl	inactive

Problem: How was `CC(C)N(C)S(=O)(=O)NC(=O)c1cc(-n2c(=O)cc(C(F)(F)F)[nH]c2=O)c(F)cc1Cl` classified in this test?
Result: inactive

Problem: Tell me the assay call for `Clc1ccc(CSc2ccc(Cl)cc2)cc1` please.
Result: inactive

Problem: Assay result, entry `c1ccc2cc3ccccc3cc2c1` — outcome?
Result: inactive

Problem: For `CC(C)CCCCCCc1ccc(O)cc1` , which call appears in the assay record?
Result: inactive

Problem: What classification did `CC(C)(c1cc(Br)c(O)c(Br)c1)c1cc(Br)c(O)c(Br)c1` end up with in this test?
Result: active

Measured values drawn from the supplement of paper PMC12669032 for this set.
